# TARGET ENTITY: Potassium voltage-gated channel subfamily KQT member 2 (Rattus norvegicus) (UniProt O88943)
# Sequence (O88943 whole entry, looked up): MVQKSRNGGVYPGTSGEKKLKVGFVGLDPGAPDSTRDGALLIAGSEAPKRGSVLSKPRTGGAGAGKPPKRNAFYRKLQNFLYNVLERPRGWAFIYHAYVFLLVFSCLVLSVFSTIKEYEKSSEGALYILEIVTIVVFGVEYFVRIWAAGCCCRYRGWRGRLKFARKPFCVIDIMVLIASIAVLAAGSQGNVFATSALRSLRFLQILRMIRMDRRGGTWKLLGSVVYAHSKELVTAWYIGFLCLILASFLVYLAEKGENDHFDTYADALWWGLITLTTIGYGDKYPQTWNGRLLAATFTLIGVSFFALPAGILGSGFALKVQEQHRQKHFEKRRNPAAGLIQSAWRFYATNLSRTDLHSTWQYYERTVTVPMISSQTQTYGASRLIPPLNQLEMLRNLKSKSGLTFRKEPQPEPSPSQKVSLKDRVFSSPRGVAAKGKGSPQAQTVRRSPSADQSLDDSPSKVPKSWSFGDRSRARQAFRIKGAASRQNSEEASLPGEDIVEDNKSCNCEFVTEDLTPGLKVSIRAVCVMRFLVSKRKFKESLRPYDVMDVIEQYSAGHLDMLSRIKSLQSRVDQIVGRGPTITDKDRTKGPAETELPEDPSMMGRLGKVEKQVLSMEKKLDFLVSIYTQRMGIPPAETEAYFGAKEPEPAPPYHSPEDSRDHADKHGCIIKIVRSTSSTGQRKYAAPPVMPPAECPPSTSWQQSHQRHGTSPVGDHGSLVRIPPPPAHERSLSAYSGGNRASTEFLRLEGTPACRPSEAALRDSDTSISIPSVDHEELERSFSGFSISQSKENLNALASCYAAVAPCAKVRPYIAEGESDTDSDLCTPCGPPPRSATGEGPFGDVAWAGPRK
# PROTOCOL SUMMARY: rat KCNQ2 channel potentiation, selectivity assay for KCNQ1 potentiator project, KCNQ2-CHO-K1 cells (AID 493009);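 further: assay conditions were tuned for KCNQ1 rather than KCNQ2 modulators; signal is max minus min fluorescence divided by baseline after thallium stimulus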
# DETAILS: FluxOR thallium flux fluorescence, at 10 µM; active compounds read high, scaled: buffer 0, activator control 100
The source made the active and inactive calls.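 How the source made its calls: active means mean duplicate potentiation above the buffer control mean plus 5 SD of buffer wells; inactive means the rest.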
MEASURE NAME: potentiation

Worked examples, 6 compounds total:
- COMPOUND: "CCOc1ccccc1C1c2[nH]c3ccccc3c2C[C@H]2C(=O)N(C3CC3)CC(=O)N12 (stereo partly specified)"
  potentiation: "inactive"
- COMPOUND: "O=C(NNc1ncc(C(F)(F)F)cc1Cl)c1ccc(Cl)c(Cl)c1"
  potentiation: "198% (active)"
- COMPOUND: "COc1ccc(-c2nc(=S)c3c([nH]2)Oc2ccc(C)cc2C3)cc1O"
  potentiation: "inactive"
- COMPOUND: "O=C(NCc1ccc(F)cc1)C1CCC(CNS(=O)(=O)c2ccccc2)CC1 (stereo unspecified)"
  potentiation: "inactive"
- COMPOUND: "Cc1cc(NC(c2cccnc2)c2c(C)[nH]c3ccccc23)no1 (stereo unspecified)"
  potentiation: "inactive"
- COMPOUND: "O=c1cc(-c2ccccc2)nc2cc(-c3ccco3)[nH]n12"
  potentiation: "inactive"

Name the reported potentiation value associated with the compound CCC1(c2ccccc2)NC(=S)N(c2ccc(C)c(C)c2)N1 (stereo unspecified)
572% (active)

Name the reported potentiation value associated with the compound COc1ccc2c(c1)c(=O)c(C(=O)O)c(-c1ccc3c(c1)OCO3)n2C
inactive

Name the reported potentiation value associated with the compound CCC1CCCCN1CCCNC(=O)CSc1nc2nc(C)c(Cc3ccccc3)c(C)n2n1 (stereo unspecified)
inactive

----------
# PROTOCOL SUMMARY: thallium flux activation in parental CHO cells, counter-screen for KCNQ1 potentiator project (AID 493006);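 on activation: fluorescence ratio of max minus min over baseline after K+ and Tl+ depolarization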
# DETAILS: parental CHO-K1 cells, FluxOR thallium flux, at 10 µM
Active and inactive are the calls of the source.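 How the source made its calls: active means duplicate-averaged activation above buffer control mean plus 5 SD of those controls; inactive means the rest.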
Entry note: the call must match one of active, inactive

Observe how each entry below is paired with its result.
- COMPOUND: "COCCn1c(C)cc(C(=O)COC(=O)c2ccc([N+](=O)[O-])o2)c1C"
  CATEGORY: "inactive"
- COMPOUND: "Cc1ccccc1OCC(=O)N=Nc1c(O)n(C)c2ccccc12"
  CATEGORY: "active"
- COMPOUND: "CCOC(=O)c1oc2ccc(S(=O)(=O)n3nc(-c4ccc(OC)cc4)cc3N)cc2c1C"
  CATEGORY: "inactive"
- COMPOUND: "Cc1cccc2sc(N(CCCN(C)C)C(=O)c3ccc4ncsc4c3)nc12"
  CATEGORY: "inactive"
- COMPOUND: "CCNC(=S)N=Nc1c(O)n(Cc2ccc(Cl)cc2)c2ccccc12"
  CATEGORY: "inactive"
- COMPOUND: "CN(C)CCNc1ncnc2c1sc1nc(N3CCCC3)c3c(c12)CC(C)(C)OC3"
  CATEGORY: "inactive"
- COMPOUND: "CCOc1cccc2sc(NC(=O)c3ccc(Br)s3)nc12"
  CATEGORY: "inactive"
- COMPOUND: "CN(C)C(=S)NC(=O)c1cccc(Cl)c1"
  CATEGORY: "inactive"
- COMPOUND: "CCSc1nnc(-c2ccncc2)n1Cc1ccccc1"
  CATEGORY: "inactive"
- COMPOUND: "S=c1[nH]cc(Cc2ccccc2)s1"
  CATEGORY: "active"

Outcome? Cc1cc(C)n(CC(=O)N2CCCC(N3CCN(c4ccccc4C)CC3)C2)n1 (configuration not stated)
active

Outcome? O=C(N/N=C/c1ccc(Sc2ccccn2)o1)c1cc2ccccc2cc1O
active

Outcome? CCC(C)[C@H](N)c1nnc(SCC(=O)Nc2cccc(Cl)c2)o1 (some centres not stated)
active

Outcome? CC1=NOC(=O)/C1=C\c1ccc(-c2ccc(Cl)cc2Cl)o1
inactive

Outcome? CC(C)c1nc2sc3c(=S)nc[nH]c3c2c2c1CCC2
active

Outcome? O=C(COC(=O)C1CCC(=O)N1)Nc1ccc(Oc2ccccc2)cc1 (configuration not stated)
inactive

Outcome? CC(C)(C)c1cc(-c2csc(Nc3ccccc3)[n+]2Cc2ccc(C(=O)O)cc2)cc(C(C)(C)C)c1O
active

Outcome? Cc1cc(Cl)ccc1OCC(=O)NNC(=O)C1CCCO1 (configuration not stated)
inactive

----------
# TARGET ENTITY: Potassium voltage-gated channel subfamily KQT member 1 (Homo sapiens) (UniProt P51787)
# Sequence (P51787 whole entry, looked up): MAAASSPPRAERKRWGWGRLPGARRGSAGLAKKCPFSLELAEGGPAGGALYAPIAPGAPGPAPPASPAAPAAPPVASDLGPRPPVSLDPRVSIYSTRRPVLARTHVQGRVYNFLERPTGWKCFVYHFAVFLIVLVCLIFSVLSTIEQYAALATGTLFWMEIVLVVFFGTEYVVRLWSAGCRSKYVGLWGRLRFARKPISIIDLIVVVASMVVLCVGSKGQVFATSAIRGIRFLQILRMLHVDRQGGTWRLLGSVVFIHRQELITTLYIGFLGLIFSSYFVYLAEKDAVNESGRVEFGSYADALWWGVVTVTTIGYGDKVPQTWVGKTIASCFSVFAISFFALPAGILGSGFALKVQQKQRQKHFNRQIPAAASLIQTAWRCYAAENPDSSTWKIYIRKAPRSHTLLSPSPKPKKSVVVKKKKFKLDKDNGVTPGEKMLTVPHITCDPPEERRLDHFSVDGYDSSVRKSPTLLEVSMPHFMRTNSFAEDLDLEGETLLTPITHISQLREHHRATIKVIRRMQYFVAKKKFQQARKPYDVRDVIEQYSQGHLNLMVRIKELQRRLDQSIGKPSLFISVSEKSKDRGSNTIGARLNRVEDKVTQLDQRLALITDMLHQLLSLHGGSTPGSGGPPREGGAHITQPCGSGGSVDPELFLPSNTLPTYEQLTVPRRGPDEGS
# PROTOCOL SUMMARY: KCNQ1 potassium channel potentiators, confirmation, FluxOR thallium flux, CHO cells, duplicates (AID 493007)
# DETAILS: KCNQ1 cell line, FluxOR thallium flux fluorescence, at 10 µM, % of reference activator effect, buffer zero
Calls of active or inactive are those of the source.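 How the source made its calls: active means potentiation averaged over duplicate wells exceeding buffer-only control mean by more than 3 SD; inactive means the rest.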
Entry note: the call must match one of label 1 for active, label 0 for inactive

Observe how each entry below is paired with its result.
- MOLECULE: "CCOC(=O)c1c(NC(=O)C(C)N2CCN(C(=O)c3ccco3)CC2)sc2c1CCCC2 (stereo unspecified)"
  CATEGORY: "label 1"
- MOLECULE: "COC(=O)c1sccc1NC(=O)CSc1ccccc1NS(=O)(=O)c1cc(Cl)ccc1Cl"
  CATEGORY: "label 0"
- MOLECULE: "CC1CN(S(=O)(=O)c2ccc(Cl)c(C(F)(F)F)c2)CC(C)O1 (stereo unspecified)"
  CATEGORY: "label 0"

Outcome? Cc1occc1C(=O)NNC(=S)NC(=O)COc1ccc(Cl)cc1Cl
label 1

Outcome? O=C1c2ccccc2C(=O)C12OC2c1cccc2ccccc12 (stereo unspecified)
label 0

Outcome? CN(C)c1ccc(-c2nn3c(-c4ccccc4Cl)nnc3s2)cc1
label 0

Outcome? O=C(Nc1ccccc1OC(F)F)c1ccc(F)cc1
label 0

Outcome? COc1ccc(-c2nc(=S)c3ccc4ccccc4c3[nH]2)cc1
label 1

----------
# TARGET ENTITY: Short transient receptor potential channel 4 (Mus musculus)
# PROTOCOL SUMMARY: inhibitors of mouse TRPC4 channel, confirmation, cell-based, Fluo4, HEK293 TRPC4beta/mu-opioid (AID 2636)
# DETAILS: DAMGO, Fluo4 calcium flux, at 10 µM; active compounds read high
Calls of active or inactive are those of the source.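 Rule for the calls: active = calcium signal cut by more than 3 SD below the full-agonist control yet still positive, in both repeats and the earlier primary screen; inactive = the rest.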
MEASURE NAME: inhibition

Worked examples, 8 molecules total:
- MOLECULE: "CC(C)(C)C(=O)NC(=S)NNC(=O)c1ccc(-c2ccccc2)cc1"
  inhibition: "inactive"
- MOLECULE: "COc1ccc(C(CNC(=O)CN2C(=O)NC3(CCCC3)C2=O)N(C)C)cc1 (stereo not given)"
  inhibition: "inactive"
- MOLECULE: "c1ccc(Nc2nc(Nc3ccccc3)nc(N3CCNCC3)n2)cc1"
  inhibition: "inactive"
- MOLECULE: "CC1CC(C)CN(CCCNC(=O)COc2cc(=O)n(C)c3ccccc23)C1 (stereo not given)"
  inhibition: "inactive"
- MOLECULE: "CC(C)(C)c1cc(CCC(=O)NNC(=S)NC(=O)c2ccccc2)cc(C(C)(C)C)c1O"
  inhibition: "inactive"
- MOLECULE: "CCOC(=O)C1(CCOc2ccccc2)CCN(Cc2ccc3c(c2)OCCO3)CC1"
  inhibition: "inactive"
- MOLECULE: "Cc1ccc(C2(O)CN(c3ccccc3C)C3=[N+]2CCS3)cc1 (stereo not given)"
  inhibition: "inactive"
- MOLECULE: "CN(C)CCCN(C(=O)c1ccc(C(=O)c2ccccc2)cc1)c1nc2ccc(F)cc2s1"
  inhibition: "inactive"

What measured inhibition is associated with Cc1ccc(Sc2cc(C(=O)NCCN(C)C)c3ccccc3n2)cc1 on Short transient receptor potential channel 4 (Mus musculus)?
inactive

What measured inhibition is associated with OC(CNC1CCCc2ccccc21)COc1ccc2ccccc2c1 (stereo not given) on Short transient receptor potential channel 4 (Mus musculus)?
inactive

----------
# TARGET ENTITY: Potassium voltage-gated channel subfamily KQT member 1 (Homo sapiens) (UniProt P51787)
# PROTOCOL SUMMARY: KCNQ1 potassium channel potentiators, confirmation, FluxOR thallium flux, CHO cells, duplicates (AID 493007)
# DETAILS: KCNQ1 cell line, FluxOR thallium flux fluorescence, at 10 µM, % of reference activator effect, buffer zero
Activity calls are given as the source filed them.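 How the source made its calls: active means potentiation averaged over duplicate wells exceeding buffer-only control mean by more than 3 SD; inactive means the rest.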
Entry note: the call must match one of true for active, false for inactive

Observe how each entry below is paired with its result.
- COMPOUND: "O=C(N/N=C/c1ccccn1)c1cc(-c2ccc(Br)cc2)nc2ccccc12"
  CATEGORY: "true"
- COMPOUND: "COCCNC(=O)CN(C)S(=O)(=O)c1ccc(Br)cc1"
  CATEGORY: "false"
- COMPOUND: "CCCc1ccc2oc(C(=O)N(C)CCn3ccnc3C)c(C)c2c1"
  CATEGORY: "false"
- COMPOUND: "CC(=O)OC1OCCOC1NC(=S)Nc1ccc(C)cc1 (stereo unspecified)"
  CATEGORY: "false"
- COMPOUND: "CCCN(CCC)C(=S)NC(=O)c1ccc(Cl)cc1Cl"
  CATEGORY: "true"

Outcome? CCCc1ccc(OCC(=O)NNC(=S)NC(=O)c2ccco2)cc1
true

Outcome? CCCOc1ccccc1Cn1c(=O)oc2ccc(C)cc21
false

Outcome? Cc1ccc(NC(=S)N/N=C2/CCCCc3ccccc32)cc1
true

Outcome? CCN(CC)C(=S)NC(=O)c1ccc(OC)c(Br)c1
true

Outcome? Cc1ccc(OCC(=O)NNC(=O)C(=O)NC(C)(C)C)cc1
true

Outcome? O=C(NC(=S)Nc1ccccc1N1CCCC1)c1ccco1
true

Outcome? CSC(=S)N/N=C/c1ccc(N(C)C)cc1
false

Outcome? O=C(NCc1ccc(F)cc1)C1CCC(CNS(=O)(=O)c2ccccc2)CC1 (stereo unspecified)
false

Outcome? CCC(/C=N/NC(=O)C1COc2ccccc2O1)CC (stereo unspecified)
false

Outcome? O=C(NN=C1CCCCCC1)c1cc(-c2ccccc2)nc2ccccc12
false

Outcome? Cc1cc(OC(=O)c2cc(Cl)ccc2Cl)c([N+](=O)[O-])c(=O)[nH]1
false

Outcome? COc1cccc(CN(C)C(=O)c2cc(COc3ccc4ncccc4c3)on2)c1
false

Outcome? Cc1ccc(-c2nc3ccccc3c(=O)n2O)cc1
true

Outcome? COc1ccc(-c2cnc3c(c2)CCC3(C#N)C#N)cc1
false

Outcome? O=C(c1ccco1)N1CCN=C1SCc1ccc(F)cc1
false

Outcome? CC1CN(c2nc3ccccc3nc2C(C#N)C(=O)NCc2ccc3c(c2)OCO3)CC(C)O1 (stereo unspecified)
true

Outcome? c1ccc(CCCNc2ncnc3nc[nH]c23)cc1
true

Outcome? CC(C)(C)C1CCc2c(sc(NC(=O)C3CC=CCC3C(=O)O)c2C#N)C1 (stereo unspecified)
true

Outcome? CSc1ccc(/C=N/NC(=O)c2cccs2)cc1
false

Outcome? CC(C)CC(=O)Nc1nnc(SCC(=O)NCc2ccco2)s1
false

Outcome? Cc1ccc(C(=O)NNC(=O)CCCCC(=O)NNC(=O)c2ccc(C)cc2)cc1
false

Outcome? COc1ccc(/C=C2\SC(=Nc3ccccc3OC)NC2=O)cc1
false
